Read-out record for UniProt P16234: IC50
Sequence (P16234 whole entry): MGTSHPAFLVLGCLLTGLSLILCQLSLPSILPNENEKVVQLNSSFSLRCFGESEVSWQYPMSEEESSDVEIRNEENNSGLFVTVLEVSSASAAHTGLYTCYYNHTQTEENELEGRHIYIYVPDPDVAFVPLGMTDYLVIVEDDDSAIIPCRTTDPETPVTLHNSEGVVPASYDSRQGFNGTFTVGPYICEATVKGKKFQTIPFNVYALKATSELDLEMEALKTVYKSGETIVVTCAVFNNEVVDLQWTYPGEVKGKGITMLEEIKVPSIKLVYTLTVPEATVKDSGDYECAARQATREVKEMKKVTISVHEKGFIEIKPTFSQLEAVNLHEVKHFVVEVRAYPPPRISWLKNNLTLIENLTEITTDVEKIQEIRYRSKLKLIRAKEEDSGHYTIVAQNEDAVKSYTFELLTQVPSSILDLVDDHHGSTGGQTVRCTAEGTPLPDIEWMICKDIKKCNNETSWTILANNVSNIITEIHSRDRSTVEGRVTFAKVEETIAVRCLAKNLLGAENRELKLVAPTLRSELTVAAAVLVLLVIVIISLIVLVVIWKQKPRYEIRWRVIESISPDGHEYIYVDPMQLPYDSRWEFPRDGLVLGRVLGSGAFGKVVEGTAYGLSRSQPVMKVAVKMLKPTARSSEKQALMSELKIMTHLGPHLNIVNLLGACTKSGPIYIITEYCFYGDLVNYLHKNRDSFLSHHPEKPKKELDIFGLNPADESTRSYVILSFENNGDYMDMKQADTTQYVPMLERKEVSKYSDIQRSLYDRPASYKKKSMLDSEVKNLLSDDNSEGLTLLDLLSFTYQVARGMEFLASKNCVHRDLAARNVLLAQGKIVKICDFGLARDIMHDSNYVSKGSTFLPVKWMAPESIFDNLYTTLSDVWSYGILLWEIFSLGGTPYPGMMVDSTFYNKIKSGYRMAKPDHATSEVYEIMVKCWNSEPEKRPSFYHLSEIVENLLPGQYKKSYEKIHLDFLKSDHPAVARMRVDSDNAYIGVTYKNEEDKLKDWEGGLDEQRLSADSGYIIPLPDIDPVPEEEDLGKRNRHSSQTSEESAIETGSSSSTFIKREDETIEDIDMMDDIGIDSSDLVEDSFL

Cc1ccc(-c2nn(CCN3CCC(CCN(C)C)CC3)c3ncnc(N)c23)cc1 :: > 10 µM
Cc1ccc(-c2nn(CCN3CCC(CN(C)C)CC3)c3ncnc(N)c23)cc1 :: > 10 µM
Cc1ccc(-c2nn(C(C)(C)C)c3ncnc(N)c23)cc1 :: 0.657 µM

Switching to the query record.
// sample CN(C)CC1CCN(CCn2nc(-c3cnc4[nH]ccc4c3)c3c(N)ncnc32)CC1 , its IC50 was > 10 µM

* * *

pIC50: −log10 of the molar value.
Listed here: molecules with reported pIC50 for Mast/stem cell growth factor receptor Kit (Homo sapiens).

COc1cc(-c2nn(CCN3CCC(N(C)C)CC3)c3ncnc(N)c23)ccc1NC(=O)OC(C)(C)C :: < 5.00
Cc1ccc(-c2nn(CCN3CCC(CN(C)C)CC3)c3ncnc(N)c23)cc1 :: < 5.00

pIC50 in this record for Cc1ccc(-c2nn(CCN3CCC(N(C)C)CC3)c3ncnc(N)c23)cc1 : < 5.00
